Biological target: T1, human G-protein-coupled receptor family C group 5 member D (GPRC5D) (human, UniProt Q9NZD1 1-345)
T1 construct: whole, on cells; also called human GPRC5D protein
T1 sequence (Q9NZD1 whole entry): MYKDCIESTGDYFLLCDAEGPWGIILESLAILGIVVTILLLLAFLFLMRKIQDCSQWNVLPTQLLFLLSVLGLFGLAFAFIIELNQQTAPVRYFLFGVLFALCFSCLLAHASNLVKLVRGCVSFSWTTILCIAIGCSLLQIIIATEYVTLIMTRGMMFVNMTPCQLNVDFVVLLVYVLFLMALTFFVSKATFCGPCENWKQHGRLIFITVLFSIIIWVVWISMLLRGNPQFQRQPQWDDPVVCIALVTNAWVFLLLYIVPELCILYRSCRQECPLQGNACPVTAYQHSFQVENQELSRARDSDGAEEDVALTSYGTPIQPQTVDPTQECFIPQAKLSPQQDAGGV
Experiment: FACS, CHO-K1/GPRC5D
Each entry below carries its reported Top.
When you answer, write just the number.

Solved entries:
BINDER	Top
34-H3L1 (antibody, V domains shown, humanized 34D3H1, VH v3 x VL v1) VH: EVHLVESGGGLVKPGGSLRLSCAASGFTFSSYGMSWVRQTPGKRLEWVATISSGGSYTYYPDSVKGRFTISRDNAKNSLNLQMSSLRAEDTAVYYCARQGGDAMDYWGQGTLVTVSS VL: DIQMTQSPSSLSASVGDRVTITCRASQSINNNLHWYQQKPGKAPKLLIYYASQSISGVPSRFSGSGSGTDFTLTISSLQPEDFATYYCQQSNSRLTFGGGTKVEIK	178000
34-H2L4 (antibody, V domains shown, humanized 34D3H1, VH v2 x VL v4) VH: EVQLVESGGGLVKPGGSLRLSCAASGFTFSSYGMSWVRQTPGKGLEWVATISSGGSYTYYPDSVKGRFTISRDNAKNSLYLQMSSLRAEDTAVYYCARQGGDAMDYWGQGTLVTVSS VL: DIVLTQSPSSLSVSVGDRVTLTCRASQSINNNLHWYQQKPGKSPKLLIYYASQSISGIPSRFSGSGSGTDFTLTISSVQPEDFATYFCQQSNSRLTFGGGTKLEIK	192000

query: Data request, read-out Top, for 34-H1L4 (antibody, V domains shown, humanized 34D3H1, VH v1 x VL v4) VH: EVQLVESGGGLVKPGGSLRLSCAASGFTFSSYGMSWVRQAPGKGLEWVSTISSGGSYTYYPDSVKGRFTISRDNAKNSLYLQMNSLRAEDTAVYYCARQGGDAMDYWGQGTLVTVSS VL: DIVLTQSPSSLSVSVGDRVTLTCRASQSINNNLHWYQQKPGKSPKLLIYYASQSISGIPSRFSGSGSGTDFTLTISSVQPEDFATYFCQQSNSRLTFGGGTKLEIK
result: 189000
